# test.target: KRAS^G12D mutant protein binding to RBD region fragment of RAF1 protein (Homo sapiens (Human), UniProt P01116, G12D)
# Sequence (P01116-2 other isoform, or with tags, fused parts or gaps G12D): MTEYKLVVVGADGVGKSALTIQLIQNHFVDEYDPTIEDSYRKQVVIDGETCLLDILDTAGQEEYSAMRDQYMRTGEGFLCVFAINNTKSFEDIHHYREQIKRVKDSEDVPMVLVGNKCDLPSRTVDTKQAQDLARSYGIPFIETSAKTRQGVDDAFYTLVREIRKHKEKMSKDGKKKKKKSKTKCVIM
# protocol.description: KRAS-RAF1 binding assay (HTRF), KRAS G12D
# condition.description: His-KRAS^G12D, GST-RAF1-RBD, GTP
# Excerpt: […]
pIC50 values, listed per item
# pIC50 = -log10(concentration in molar units)

Previously resolved entries follow.
| compound | pIC50 |
| --- | --- |
| C#Cc1cccc2cc(O)cc(-c3ncc4c(N5CC6CCC(C5)C6N)nc(OCC56CCCN5CCC6)nc4c3F)c12 (stereo not shown) [Example Z1] | 6.59 |
| C=C1CN2CCCC2(COc2nc(N3C[C@H]4CC[C@@H](C3)N4)c3cnc(-c4cc(O)cc5cccc(CC)c45)c(F)c3n2)C1 (stereo partly shown) | 7.34 |
| C#Cc1cccc2cc(O)cc(-c3ncc4c(N5CC6CCC(C5)C6N)nc(OCC56CCCN5CCC6)nc4c3F)c12 (stereo not shown) [Example Z2] | 6.73 |
| C#Cc1cccc2cc(O)cc(-c3ncc4c(N5C[C@H]6C=C[C@@H](C5)N6)nc(OCC56CCCN5CCC6)nc4c3F)c12 | 7.69 |
| C#Cc1cccc2cc(O)cc(-c3ncc4c(N5C[C@H]6C=C[C@@H](C5)N6)nc(OC[C@@]56CCCN5C[C@H](F)C6)nc4c3F)c12 | 7.14 |

Which value of pIC50 has been reported for C#Cc1c(F)ccc2cc(O)cc(-c3ccc4c(N5C[C@H]6CC[C@@H](C5)N6)nc(OCC56CCCN5CCC6)nc4c3F)c12 in the records?
7.10

Requested read-out: pIC50. Entry: C#Cc1cccc2cc(O)cc(-c3ncc4c(N5C[C@H]6CC[C@@H](C5)N6)nc(OCC56CCCN5CC(=C(C)C)C6)nc4c3F)c12 (stereo partly shown)
7.40

Which pIC50 value is on record for C#Cc1c(F)ccc2cc(O)cc(-c3ncc4c(N5C[C@H]6CC[C@@H](C5)N6)nc(OCC56CCCN5CC(=C)C6)nc4c3F)c12 (stereo partly shown) ?
7.79

###

# Test system: AGS cells (KRAS^G12D mutation)
# protocol.description: Cell proliferation inhibition assay (3D, CellTiter-Glo), AGS
# Format: cell-based, human
# condition.description: 3D cell model, 5 days
reported.metric: pIC50
Field pIC50 (float): negative decimal logarithm of the concentration in molar.

What does the record list as pIC50 for C#Cc1c(F)ccc2cc(O)cc(-c3ncc4c(N5C[C@H]6CC[C@@H](C5)N6)nc(OCC56CC(=C)CN5CC(=C)C6)nc4c3Cl)c12 ?
8.32

// query pIC50 value for entry C#Cc1c(F)ccc2cc(O)cc(-c3ncc4c(N5C[C@H]6CC[C@@H](C5)N6)nc(OCC56CC(=C)CN5CC(=C(F)F)C6)nc4c3F)c12 (stereo partly drawn)
8.29

###

Listed here: items and their measured IC50.
# Test system: AGS cells (KRAS^G12D mutation)
# protocol.description: Cell proliferation inhibition assay (3D, CellTiter-Glo), AGS
# Assay type: cell-based, human
# condition.description: Homo sapiens, AGS, 120 h, 3D cell model, 5 days
Quick reminder: number only, in nM, skip the unit.

Data request, read-out IC50, for C#Cc1cccc2cc(O)cc(-c3ncc4c(N5C[C@H]6C=C[C@@H](C5)N6)nc(OCC56CCCN5CC(F)(F)C6)nc4c3F)c12 (stereo partly drawn)
194

Which IC50 value is on record for C#Cc1cccc2cc(O)cc(-c3ncc4c(N5C[C@H]6CC[C@@H](C5)N6)nc(OCC56CCCN5CC(=CF)C6)nc4c3F)c12 (stereo partly drawn) ?
4.5

Name the reported IC50 value associated with the compound C#Cc1c(F)ccc2cc(O)cc(-c3ncc4c(N5C[C@H]6CC[C@@H](C5)N6)nc(OCC56CC(=C)CN5[C@H]5C[C@H]5C6)nc4c3F)c12 (stereo partly drawn)
26

###

# test.target: KRAS^wt (wild type) protein binding to RBD region fragment of RAF1 protein (Homo sapiens (Human), UniProt P01116)
# Sequence (P01116-2 other isoform, or with tags, fused parts or gaps): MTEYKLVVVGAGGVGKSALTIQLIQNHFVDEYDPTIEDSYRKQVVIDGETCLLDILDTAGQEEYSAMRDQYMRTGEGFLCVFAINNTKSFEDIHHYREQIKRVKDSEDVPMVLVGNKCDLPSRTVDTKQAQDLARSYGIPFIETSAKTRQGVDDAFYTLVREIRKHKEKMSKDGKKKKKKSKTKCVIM
reported.metric: pIC50
Interpret pIC50 as the negative base-10 log of the concentration measured in mol/L.

Some solved cases for reference:
| compound | reported.metric | recorded.measurement |
| --- | --- | --- |
| C#Cc1cccc2cc(O)cc(-c3ncc4c(N5CC6CCC(C5)C6N)nc(OCC56CCCN5CCC6)nc4c3F)c12 (stereo not shown) [Example Z1] | pIC50 | 5.58 |
| C#Cc1cccc2cc(O)cc(-c3ncc4c(N5CC6CCC(C5)C6N)nc(OCC56CCCN5CCC6)nc4c3F)c12 (stereo not shown) [Example Z2] | pIC50 | 6.10 |
| C#Cc1cccc2cc(O)cc(-c3ncc4c(N5C[C@H]6C=C[C@@H](C5)N6)nc(OC[C@@]56CCCN5C[C@H](F)C6)nc4c3F)c12 | pIC50 | 5.99 |

The record that follows has no pIC50 shown yet.
Endpoint output: pIC50 of C=C1CN2CCCC2(COc2nc(N3C[C@H]4CC[C@@H](C3)N4)c3cnc(-c4cc(O)cc5cccc(CC)c45)c(F)c3n2)C1 (stereo partly shown) . Value?
6.58

###

# System: AsPC-1 cells (KRAS^G12D mutation)
# protocol.description: Cell proliferation inhibition assay (3D, CellTiter-Glo), AsPC-1
# Type: cell-based, human
# condition.description: Homo sapiens, ASPC1, 120 h, 3D cell model, 5 days
reported.metric: pIC50
Hey, just a heads up that pIC50 is the negative log base 10 of the concentration in molar.

Observe how each entry below is paired with its result.
| compound | recorded.measurement |
| --- | --- |
| C#Cc1cccc2cc(O)cc(-c3ncc4c(N5C[C@H]6CC[C@@H](C5)N6)nc(OCC56CCCN5CC(=C(C)C)C6)nc4c3F)c12 (stereo partly drawn) | 6.84 |
| C#Cc1c(F)ccc2cc(O)cc(-c3ccc4c(N5C[C@H]6CC[C@@H](C5)N6)nc(OCC56CCCN5CCC6)nc4c3F)c12 | 6.52 |

Next up:
Quick check: pIC50 of C#Cc1cccc2cc(O)cc(-c3ncc4c(N5C[C@H]6CC[C@@H](C5)N6)nc(OCC56CCC7(CC7)N5CC(=C)C6)nc4c3F)c12 (stereo partly drawn) ?
7.12

###

# test.target: KRAS^G12D mutant protein binding to RBD region fragment of RAF1 protein (Homo sapiens (Human), UniProt P01116, G12D)
# protocol.description: KRAS-RAF1 binding assay (HTRF), KRAS G12D
# condition.description: His-KRAS^G12D, GST-RAF1-RBD, GTP
pIC50: recorded values
Quick note: pIC50 values are minus log10 of concentrations in mol/L.

Quick one: pIC50 for C#Cc1cccc2cc(O)cc(-c3c(F)cc4c(N5C[C@H]6CC[C@@H](C5)N6)nc(OCC56CCCN5CC(=C)C6)nc4c3F)c12 (some centres unmarked) [Example Z20] ?
6.98

Need pIC50, item C#Cc1cccc2cc(O)cc(-c3ncc4c(N5C[C@H]6CC[C@@H](C5)N6)nc(OCC56CCCN5CC=C6CC)nc4c3F)c12 (some centres unmarked) [Example Z16]
7.22

###

# Tested on: AsPC-1 cells (KRAS^G12D mutation)
# protocol.description: Cell proliferation inhibition assay (3D, CellTiter-Glo), AsPC-1
# Type: cell-based, human
# condition.description: Homo sapiens, ASPC1, 120 h, 3D cell model, 5 days
log10 IC50 values, listed per item
Please note: log10 values; quantity IC50; unit nM.

Value lookup for log10 IC50; key = C#Cc1cccc2cc(O)cc(-c3ncc4c(N5C[C@H]6CC[C@@H](C5)N6)nc(OCC56CC(=C)CN5CC5(CC5)C6)nc4c3F)c12 (stereo partly drawn)
1.52

###

# Test system: AsPC-1 cells (KRAS^G12D mutation)
# protocol.description: Cell proliferation inhibition assay (3D, CellTiter-Glo), AsPC-1
# Type: cell-based, human
# condition.description: Homo sapiens, ASPC1, 120 h, 3D cell model, 5 days
reported.metric: IC50 (nM)
Note: unit nM is implicit; provide only the numeric part.

Recorded results for 2 compounds are shown here.
| compound | IC50 (nM) |
| --- | --- |
| C#Cc1cccc2cc(O)cc(-c3ncc4c(N5C[C@H]6C=C[C@@H](C5)N6)nc(OC[C@@]56CCCN5C[C@H](F)C6)nc4c3F)c12 | 433 |
| C#Cc1c(F)ccc2cc(O)cc(-c3ncc4c(N5C[C@H]6CC[C@@H](C5)N6)nc(OC[C@]56CCCN5CC(=C)C6)nc4c3F)c12 (single isomer, unassigned) | 67.2 |

Could you now look at the following compound, please?
Consider the compound C#Cc1cccc2cc(O)cc(-c3ncc4c(N5C[C@H]6CC[C@@H](C5)N6)nc(OCC56CCCN5CCC6=C)nc4c3F)c12 (stereo partly drawn) and give its measured IC50.
70.7
